Target system: Angiotensin-converting enzyme (Cavia porcellus)
Experimental protocol: In vitro inhibitory activity against Angiotensin I converting enzyme from unpurified guinea pig serum
Measured pIC50 by item
Here pIC50 is given on a logarithmic scale as minus log10 of the concentration in mol/L.

// below: answered compounds
Summary for this compound, CCOC(=O)C(CCc1ccccc1)SC(C)C(=O)N1CSC[C@@H]1C(=O)O (stereo not given in full) : pIC50 is 5.32

Summary for this compound, CC(SC(CCc1ccccc1)C(=O)O)C(=O)N1CCC[C@H]1C(=O)O (stereo not given in full) : pIC50 is 6.24

Summary for this compound, CCOC(=O)C(CCc1ccccc1)OC(C)C(=O)N1C(C(=O)O)CC2CCCCC21 (stereo not given) : pIC50 is 7.62

---
Summary for this compound, CC(SC(CCc1ccccc1)C(=O)O)C(=O)N1C2CCCCC2C[C@H]1C(=O)O (stereo not given in full) : pIC50 is 6.85

Summary for this compound, CCOC(=O)C(CCc1ccccc1)OC(C)C(=O)N1Cc2ccccc2CC1C(=O)O (stereo not given) : pIC50 is 7.85

Summary for this compound, CCOC(=O)C(CCc1ccccc1)SC(C)C(=O)N1CCCC1C(=O)O (stereo not given) : pIC50 is 5.54

Summary for this compound, CCOC(=O)C(CCc1ccccc1)SC(C)C(=O)N1Cc2ccccc2C[C@H]1C(=O)O (stereo not given in full) : pIC50 is 6.34

Summary for this compound, CC(OC(CCc1ccccc1)C(=O)O)C(=O)N1Cc2ccccc2CC1C(=O)O (stereo not given) : pIC50 is 7.07

Summary for this compound, CCOC(=O)C(CCc1ccccc1)[S+]([O-])C(C)C(=O)N1C2CCCCC2C[C@H]1C(=O)O (stereo not given in full) : pIC50 is 6.66

Summary for this compound, CCOC(=O)C(CCc1ccccc1)OC(C)C(=O)N1CCCC1C(=O)O (stereo not given) : pIC50 is 6.66
